- assay.comment: qHTS assay to test for compound auto fluorescence at 535 nm (green) in HepG2 cells (AID 720675)
- run.conditions: green autofluorescence 485/535 nm, 1 h; series mostly up to 91.3 µM
Activity calls are given as the source filed them. Calls follow the shape of the dose curve; as a rule, active = well fitted curve in the direction sought with a large enough effect in the repeat runs; inconclusive = weak or mixed curves; inactive = flat fitted curve, though single readings scatter. Residues, ends and D or L forms follow the SMILES beside them.

| molecule | outcome |
| --- | --- |
| Oc1ccc(/C=C/c2cc(O)cc(O)c2)cc1 | inactive |
| CNC[C@H](O)c1cccc(O)c1 | inactive |
| Cc1ccccc1C(OCCN(C)C)c1ccccc1 (configuration not stated) | inactive |
| Cn1c(=O)c2[nH]cnc2n(C)c1=O | inactive |
| CCCC(O)C(CC)CO (configuration not stated) | inactive |
| OCCc1ccccc1 | inactive |
| O=C(O)CCCCCCCC(=O)O | inactive |
| NC(N)=NC(=O)c1nc(Cl)c(N)nc1N | inactive |
| CCCCCCCCCCCCCCCC(=O)O | inactive |
| Cc1ccc(C)c(OCCCC(C)(C)C(=O)O)c1 | inactive |
| C/C=C/c1ccc(OC)cc1 | inactive |
| O=C(O)C(=O)O | inactive |
| O=C(c1ccccc1)C(O)c1ccccc1 (configuration not stated) | inactive |
| CCCNC(=O)NS(=O)(=O)c1ccc(Cl)cc1 | inactive |
| CC1(C)[C@@H]2CC[C@@]1(C)C(=O)C2 | inactive |
| Nc1ccc(S(=O)(=O)Nc2nccs2)cc1 | inactive |
| COC(=O)[C@H](Cc1ccccc1)NC(=O)[C@@H](N)CC(=O)O (H-Asp-Phe-OMe) | inactive |
| O=C(O)c1cc(N=Nc2ccc(S(=O)(=O)Nc3ccccn3)cc2)ccc1O | inactive |
| C[C@]12C=CC(=O)C=C1CC[C@@H]1[C@@H]2[C@@H](O)C[C@@]2(C)[C@H]1CC[C@]2(O)C(=O)CO | inactive |
| Cc1noc(NS(=O)(=O)c2ccc(N)cc2)c1C | inactive |
| COc1c2occc2cc2ccc(=O)oc12 | inactive |
| O=C(O)c1cccc([N+](=O)[O-])c1 | inactive |
| NC(=O)c1cnccn1 | inactive |
| O=NO | inactive |
| CCCCC(CC)COC(=O)/C=C/c1ccc(OC)cc1 (configuration not stated) | inactive |
| O=C1NC(=O)c2ccccc21 | inactive |
| O=C(C1CCCCC1)N1CC(=O)N2CCc3ccccc3C2C1 (configuration not stated) | inactive |
| Cc1cc(=O)[nH]c(=S)[nH]1 | inactive |
| O=c1ccc2ccccc2o1 | inactive |
| O=C(c1ccccc1)c1ccccc1 | inactive |
| Nc1ccc(C(=O)O)cc1 | inactive |
| Cc1cc(=O)n(-c2ccccc2)n1C | inactive |

----------
- assayed.target: Androgen receptor (Homo sapiens)
- assay.comment: qHTS assay to identify small molecule agonists of the androgen receptor (AR) signaling pathway (AID 743036)
- run.conditions: HEK293 AR-UAS-bla GripTite, beta-lactamase FRET ratio, 16 h; series mostly up to 62.4 µM
Results filed as inconclusive are left out. The source made the active and inactive calls. The call rests on the fitted dose curve; in most records, active means well fitted activation curve with a large enough effect in the signal ratio in the repeat runs, with a control signal flat (not every such curve was filed as active); inconclusive means weak or mixed curves, or effect the other way; inactive means no such curve, though single readings can be large or run the other way; the % refers to the signal ratio.

| molecule | outcome |
| --- | --- |
| C1N2CN3CN1CN(C2)C3 | inactive |
| CC(C)[C@@H]1CC[C@@H](C)C[C@H]1O | inactive |
| Cc1cc(=O)n(-c2ccccc2)n1C | inactive |
| CC(C)(Oc1ccc(C2CC2(Cl)Cl)cc1)C(=O)O (centres undefined) | inactive |
| Cc1ccc(C)c(OCCCC(C)(C)C(=O)O)c1 | inactive |
| c1ccc2[nH]ccc2c1 | inactive |
| Cc1ccc(O)cc1 | inactive |
| CCCN(CCC)S(=O)(=O)c1ccc(C(=O)O)cc1 | inactive |
| O=C(c1ccccc1)c1ccccc1 | inactive |
